Recorded values, source ChEMBL document CHEMBL4739717.

# Measurement target: Dual specificity tyrosine-phosphorylation-regulated kinase 1A (Homo sapiens, UniProt Q13627)
# Test protocol: Inhibition of recombinant DYRK1A (unknown origin) using Ser/Thr 18 peptide as substrate incubated for 1 hr in presence of ATP by FRET assay
pEC50: −log10 of the molar value.
Measurement type: pEC50

Here are 4 molecules together with their reported answers.
O=C(CC1CCNCC1)Nc1cncc(-c2ccc3[nH]nc(-c4cc5c(-c6ccccn6)cccc5[nH]4)c3n2)c1 | 8.00
O=C(Nc1cncc(-c2cc3c(-c4cc5cnccc5[nH]4)n[nH]c3cn2)c1)c1ccccc1 | 8.52
Cc1n[nH]c2ccc(-c3cncc(N4CCC[C@H](N)C4)n3)cc12 | 7.30
Fc1ccccc1-c1nccc2[nH]c(-c3n[nH]c4cnc(-c5cn[nH]c5)cc34)cc12 | 7.20

1: O=C(Nc1cncc(-c2cnc3[nH]nc(-c4cc5c(-c6cccs6)nccc5[nH]4)c3c2)c1)C1CCC1
2: O=C(Nc1ccc(N2CCCC2)nc1)c1n[nH]c2ccc(-c3cncc(CN4CCC4)c3)cc12
3: Cn1cc(-c2cc3c(-c4nc5c(-c6cccc(F)c6)cncc5[nH]4)n[nH]c3cn2)cn1
4: CCC(=O)Nc1cncc(-c2ccc3[nH]nc(-c4cc5c(N6CCCCC6)nccc5[nH]4)c3c2)c1
Q: Sort the 4 molecules by pEC50; largest first, smallest last. The reply should contain the labels ordered as requested.
A: 2, 4, 3, 1

P: O=C(Nc1cncc(-c2cc3c(-c4nc5c(-c6cccs6)nccc5[nH]4)n[nH]c3cn2)c1)C1CC1
Q: CS(=O)(=O)NCc1cc(F)cc(-c2nccc3[nH]c(-c4n[nH]c5ccc(-c6cncc(CN7CCCCC7)c6)nc45)cc23)c1
R: Nc1cncc(-c2ccc3[nH]nc(-c4cc5cccnc5[nH]4)c3c2)c1
S: CCNCc1cncc(-c2ccc3[nH]nc(-c4nc5c(-c6ccccn6)nccc5[nH]4)c3c2)c1
T: O=C(N[C@H]1C[C@@H]1c1ccccc1)c1n[nH]c2ccc(-c3cncc(CN4CCCCC4)c3)cc12
Q: List these items ordered by pEC50, big to small. Use the labels to give the requested order.
A: T, R, S, P, Q

a: COc1cncc(-c2ccc3[nH]nc(-c4cc5c(-c6ccoc6)nccc5[nH]4)c3c2)c1
b: O=C(Nc1c[nH]nc1C(=O)Nc1ccc(N2CCCCC2)nc1)c1cncc(OC2CCNCC2)c1
Q: // compare measured pEC50, left a , right b , return larger When you have decided, please share the label of that item.
A: b

I: CS(=O)(=O)NCc1cc(F)cc(-c2cncc3[nH]c(-c4n[nH]c5ccc(-c6cncc(NC(=O)C7CC7)c6)nc45)cc23)c1
II: Cc1n[nH]c2ccc(-c3cncc(OCC4(F)CNC4)n3)cc12
Q: Higher pEC50 between I and II ? State the label of the item chosen.
A: II

----------
# Test protocol: Effect on Wnt signaling pathway in human SW480 cells harbouring TCF/LEF luciferase reporter gene and SP5-Luc reporter gene incubated for 36 to 48 hrs by luminescence assay
# Assay type: cell-based
pEC50: −log10 of the molar value.
Measurement type: pEC50

CC(C)C(=O)Nc1cncc(-c2ccc3[nH]nc(-c4nc5c(-c6cccnc6)cncc5[nH]4)c3c2)c1 | 8.29
CC(C)CC(=O)Nc1cncc(-c2cc3c(-c4nc5c(-c6ccoc6)cccc5[nH]4)n[nH]c3cn2)c1 | 7.26

a: O=C(Nc1cncc(-c2ccc3[nH]nc(-c4cc5c(-c6ccccc6F)nccc5[nH]4)c3c2)c1)C1CCCC1
b: CCCC(=O)Nc1cncc(-c2cnc3[nH]nc(-c4nc5c(-c6ccccc6F)cncc5[nH]4)c3c2)c1
Q: Exercise: compare a and b ; which one has the greater pEC50? Please identify the chosen entry by its label.
A: b
